System: SKOV-3
Test: Antiproliferative activity, sulphorhodamine B assay, 72 hours of treatment
Assay type: cell-based
Conditions: SKOV-3 (ovary)
Property Measured: pIC50
Numbers only, as −log10 of the molar value.

The recorded pIC50 for CC1=C(/C=C/C(C)=C/C=C/C(C)=C/C(=O)Nc2ccc(O)cc2)C(C)(C)CCC1=NOCC(=O)[O-].[Na+] [Salt 1a] is 5.22

====

Tested on: T47-D
Assay: Antiproliferative activity, sulphorhodamine B assay, 72 hours of treatment
Type: cell-based
Conditions: T47-D (breast)
Procedure: The antiproliferative activity of the various compounds 1a-c (in both monotherapy and combined treatment) on the different tumour cell lines was evaluated by sulphorhodamine B assay after 72 hours of treatment, and the dose able to inhibit 50% of growth (IC50) was calculated for the monotherapy (the results are summarized in Table 1 and Table 3), while the Kern Index (KI) was determined as the synergism/antagonism […] index for the combined treatment (the results are depicted in FIG. 2).
Property Measured: IC50
Reply with the number and its unit after it.

Molecule: CC1=C(/C=C/C(C)=C/C=C/C(C)=C/C(=O)Nc2ccc(O)cc2)C(C)(C)CCC1=NOCC(=O)[O-].[Na+] [Salt 1a]
IC50: 3.95 µM

I need IC50 for every entry listed below, if you could help.
1. CC1=C(/C=C/C(C)=C/C=C/C(C)=C/C(=O)Nc2ccc(O)cc2)C(C)(C)CCC1=NOCCCC(=O)O
2. CCCCC(ON=C1CCC(C)(C)C(/C=C/C(C)=C/C=C/C(C)=C/C(=O)Nc2ccc(O)cc2)=C1C)C(=O)O (stereo not drawn)

1: 4.2 µM; 2: 3 µM

Reference source for all entries: patent US10093621B2
